# Lookup of reported TGI keyed by entry
System: SF-295 CNS
Experiment: NCI tumour cell line growth inhibition, 48 h

COc1ccc(C2=NN(C(=O)c3ccccc3)C(O)(c3cc(F)c(Cl)cc3Cl)C2)cc1OC (stereo unspecified)
> 100 µM

Exercise: Would you kindly share the measured TGI for `Oc1ccc(-c2c3ccccc3c(-c3ccc(OCCBr)cc3)c3ccccc23)cc1` ?
Solution: 32.7 µM

Exercise: Now the same for O=C1ON(Cc2ccccc2)C(c2ccccc2)N1c1ccccc1 (stereo unspecified)
Solution: > 100 µM

----------
Test system: HT29 colon
Assay: NCI tumour cell line growth inhibition, 48 h
# Lookup of reported GI50 keyed by entry

Look over these answered cases.
Fc1ccc(CNc2c3ccccc3nc3ccccc23)cc1
2.27 µM
CCOC(=O)c1c[nH]c2c(OCc3ccccc3)c3ccccc3c(O)c2c1=O
22.2 µM
CCOCCc1c(O)nc(SC)[nH]c1=O
> 100 µM
COc1ccc(C(=O)C(c2ccc(OC)cc2)C2C(=O)Oc3ccccc32)cc1 (stereo not given)
> 100 µM

Exercise: Would you kindly share the measured GI50 for `O=C(/C=C/C=C/c1ccccc1)c1ccc(Nc2nc(Nc3ccccc3)nc(Nc3ccccc3)n2)cc1` ?
Solution: > 100 µM
